Where these numbers come from: patent US20250145637A1

This listing pairs compounds with measured Vd/F.
Assay: Pharmacokinetic evaluation in SD rats
Format: in vivo
Conditions: both sexes, rat, plasma, po, i.g., 2.0 mg/kg, read-out: Apparent distribution volume Vz/F
Assay metric: Vd/F (L/kg)

Compound | Quantitative result
Cc1ccc(S(=O)(=O)Nc2noc3cc(Cn4cccn4)c4c(c23)OCC4)c(OCC(F)(F)F)c1 [Compound 21] | 0.496
COc1cccc(OC(F)(F)F)c1S(=O)(=O)Nc1noc2cc(Cn3cccn3)c3c(c12)OCC3 [Compound 23] | 0.47
CCOc1cc(C)ccc1S(=O)(=O)Nc1noc2cc(Cn3cccn3)c3c(c12)OCCC3 [Compound 7] | 0.25
COc1cccc(OC)c1S(=O)(=O)Nc1noc2cc(Cn3cccn3)c3c(c12)OCCC3 [Compound 2] | 0.202

----------
Assay: Pharmacokinetic evaluation in SD rats
Type: in vivo
Conditions: both sexes, rat, plasma, po, i.g., 2.0 mg/kg, read-out: Area under curve AUC0-t

Compound string | AUC(0-t), ng·h/mL
Cc1ccc(S(=O)(=O)Nc2noc3cc(Cn4cccn4)c4c(c23)OCC4)c(OCC(F)(F)F)c1 | 43700
COc1cccc(OC)c1S(=O)(=O)Nc1noc2cc(Cn3cccn3)c3c(c12)OCCC3 | 43300
COc1cccc(OC(F)(F)F)c1S(=O)(=O)Nc1noc2cc(Cn3cccn3)c3c(c12)OCC3 | 61200
CCOc1cc(C)ccc1S(=O)(=O)Nc1noc2cc(Cn3cccn3)c3c(c12)OCCC3 | 81300

----------
AUC(0-t) listing for selected compounds.
Assay: Pharmacokinetic evaluation in C57 mice
Format: in vivo
Conditions: both sexes, mouse, plasma, po, i.g., 2.0 mg/kg, read-out: Area under curve AUC0-t

Compound string | Quantity unit | AUC(0-t)
COc1cccc(OC)c1S(=O)(=O)Nc1noc2cc(Cn3cccn3)c3c(c12)OCCC3 | µg·h/mL | 405
COc1ccccc1S(=O)(=O)Nc1noc2cc(Cn3cccn3)c3c(c12)OCCC3 | µg·h/mL | 393

----------
Experiment: Pharmacokinetic evaluation in C57 mice
Type: in vivo
Conditions: both sexes, mouse, plasma, iv, 1.0 mg/kg, read-out: Area under curve AUC0-t
Reported AUC(0-t) values for the following compounds.
Assay metric: AUC(0-t) (µg·h/mL)

Compound string | Quantity unit | Quantitative result
COc1cccc(OC)c1S(=O)(=O)Nc1noc2cc(Cn3cccn3)c3c(c12)OCCC3 | µg·h/mL | 188
COc1ccccc1S(=O)(=O)Nc1noc2cc(Cn3cccn3)c3c(c12)OCCC3 | µg·h/mL | 209

----------
System: ZR-75-1
Assay: ZR-75-1 proliferation assay (CellTiter-Glo, day 14)
Type: cell-based
Conditions: Homo sapiens, 336 h; ZR-75-1 proliferation, CTG assay day 14
pIC50: −log10 of the molar value.

Compound string | Tested on | pIC50
COc1cccc(OC)c1S(=O)(=O)Nc1noc2cc(Cn3cccn3)c3c(c12)OCCC3 | ZR-75-1 | 9.40
COc1cccc(OC(F)(F)F)c1S(=O)(=O)Nc1noc2cc(Cn3cccn3)c3c(c12)OCC3 | ZR-75-1 | 7.96
COc1cccc(OC(F)(F)F)c1S(=O)(=O)Nc1noc2cc(Cn3cccn3)c3c(c12)OCCC3 | ZR-75-1 | 8.53
COc1cc2c(cc1S(=O)(=O)Nc1noc3cc(Cn4cccn4)c4c(c13)OCCC4)CCC2 | ZR-75-1 | 9.22
COc1ccccc1S(=O)(=O)Nc1noc2cc(Cn3cccn3)c3c(c12)OCC3 | ZR-75-1 | 8.07
CCOc1cc(C)ccc1S(=O)(=O)Nc1noc2cc(Cn3cccn3)c3c(c12)OCCC3 | ZR-75-1 | 8.80
COc1cccc(OC)c1S(=O)(=O)Nc1noc2cc(Cn3cccn3)c3c(c12)OCC3 | ZR-75-1 | 8.85
